Assignment: determine reported FACS (MFI) for the given binders.
measured target: T1, human BCMA on cells (L-BCMA+, K562-BCMA+, A549-BCMA-1D6) (human, UniProt Q02223 1-184)
T1 construct: whole, on cells; the cell line of each assay is named under assay; also called L-BCMA-1E6-A4; K562-BCMA-B22D8
T1 sequence (looked up): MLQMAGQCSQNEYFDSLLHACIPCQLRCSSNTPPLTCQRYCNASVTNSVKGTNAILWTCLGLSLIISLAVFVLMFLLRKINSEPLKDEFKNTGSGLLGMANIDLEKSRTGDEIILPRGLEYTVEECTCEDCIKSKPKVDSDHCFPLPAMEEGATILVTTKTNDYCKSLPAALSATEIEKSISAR
measurement notes: FACS, hybridoma supernatant, BCMA+ cells; further: test concentration or dose not given here
// units = MFI; emit number, no label

// query FACS (MFI) value for entry hybridoma antibody 6G10-1D7 (mAb001) (antibody, IgG1, V domains shown, tested as supernatant and purified; also called CP01) VH: EVQLQQSGPELVKPGASMKISCKASDYSFTDYIMTWVKQSHGKNLEWIGLINPYNGGTTYNQKFKDKATFTVDKSSTTAYMDLLSLTSEDSAVYYCARRGITTDYYTMDYWGQGTSVTVSS VL: DIVMTQSQRFMSTSVGDRVSITCKASQSVGTAVAWYQQTPGQFPKLLIYSTSNRYTGVPDRFTGSGSGTDFTLTISNMQSEDLADYFCQQYSTYPLTFGSGTKLELK 3880

# FACS (MFI) lookup, item hybridoma antibody 102A12H6 (mAb003) (antibody, IgG1, V domains shown, murine hybridoma antibody, IgG1,κ) VH: EVQLQQSGPELVKPGASVKISCKASGYSFTGYYMNWVKQSPEKSLEWIGEINSSTGGTTYNQKFKAKATMTVDKSSNTAYMELKSLTSEDSAVYYCRYYGSDWHFDVWGTGTTVTVSS VL: QIVLTQSPALMSASPGEKVTMTCSASSSVSYMYWYQQKPRSSPKPWIYLTSSLASGVPARFSGSGSGTSYSLTISTMEAEDAATYYCQQWSSDPLTFGAGTKLELK 762

Any idea what FACS (MFI) was measured for hybridoma antibody 113B3F12 (mAb008) (antibody, IgG2b, V domains shown, murine hybridoma antibody, IgG2b,κ) VH: EVQLQQSGPVLVKPGASVKMSCKASGYTFTDYYMNWVKQSHGKSLEWIGVINPYNGGTDYNQKFKGKATLTVDKSSSTAYMELNSLTSEDSAVYYCARRRESYGTSYQGAYFDSWGQGTTLTVSS VL: DIQMTQTTSSLSASLGDRVTISCRASQDISNYLNWYQQKPDGTVKLLIYYTSRLHSGVPSRFSGSGSGTDYSLSISDLEQEDIATYFCQQVITLPWTFGGGTKLEIK ? 3890

Look at this binder and give its reported FACS (MFI). hybridoma antibody 105C10F1 (mAb004) (antibody, IgG2b, V domains shown, murine hybridoma antibody, IgG2b,κ; re-named CP03; also called CP03) VH: EVKLLQSGGGLVQPGGSLKLSCAASGIDFSRYWMSWVRRAPGKGLEWIGEINPDSSTINYAPSLKDKFIISRDAAKNTLYLQMSKVRSEDTALYYCATLYYDYDGDYAMDYWGQGTSVTVSS VL: DIVMTPSQKFMSTSVGDRVSVTCKASQNVGTNVAWYQQKPGQSPKALIYSASYRYSGVPDRFTGSGSGTDFTLTISNVQSEDLAEYFCQHYNSYPFTFGSGTKLEIK 1960
